For each record, write down the corresponding Purity.
experiment: Stability test of crystalline forms (high temperature, high humidity, irradiation; HPLC purity and crystal form); type: physicochemical; settings: Irradiation 4500 ± 500 lx, Day 0
Kindly provide the numeric value in % only, without the unit symbol.

I would be grateful if you could share the reported Purity for CC1(C)CCC(CN2CCN(c3ccc(C(=O)NS(=O)(=O)c4ccc(NC[C@H]5COCCO5)c([N+](=O)[O-])c4)c(Oc4cnc5[nH]ccc5c4)c3)CC2)=C(c2ccc(C(F)(F)F)cc2Cl)C1 [Crystalline form E] .
98.02

I would be grateful if you could share the reported Purity for CC1(C)CCC(CN2CCN(c3ccc(C(=O)NS(=O)(=O)c4ccc(NC[C@H]5COCCO5)c([N+](=O)[O-])c4)c(Oc4cnc5[nH]ccc5c4)c3)CC2)=C(c2ccc(C(F)(F)F)cc2Cl)C1 [Amorphous form] .
97.91

I would be grateful if you could share the reported Purity for CC1(C)CCC(CN2CCN(c3ccc(C(=O)NS(=O)(=O)c4ccc(NC[C@H]5COCCO5)c([N+](=O)[O-])c4)c(Oc4cnc5[nH]ccc5c4)c3)CC2)=C(c2ccc(C(F)(F)F)cc2Cl)C1 [Crystalline form B] .
98.44
